- Test system: KM12
- Assay procedure: NCI tumour cell line growth inhibition, 48 h
Activity calls are given as the source filed them. No stated cut-off is given here; in the data, active = GI50 up to about 1.1 µM and inactive = higher.
Log the outcome using a class from yes for active, no for inactive

COC(=O)CN(C)P(=O)(N1CC1)N1CC1 ... no
COC(=O)[C@@H]1[C@@H](c2cccc(Cl)c2)[C@H](C(=O)OC)C2(C[C@@]1(C)O)NCCS2 (stereo not given in full) ... no
COC(=O)C1=C(O)CCCC(C2CCCCC(=O)C2C(=O)OC)=C1 (stereo not given) ... no

Test call, this compound: C1CSCCSCCSCCSC1 no

# outcome recorded in this test, key = NCCCN(CCCCN(CCCN)Cc1ccc2ccccc2c1)Cc1ccc2ccccc2c1 no

Look up the recorded call for Nc1ccc2nc(NCc3ccc(F)cc3)cnc2c1 in this test. no

Entry CC1=NNC(=O)C1C1C=C(c2c[nH]c3ccccc23)OC1=O (stereo not given) : call = ? no

Which outcome was assigned to C/C(=N\NS(=O)(=O)c1ccccc1)c1ccc(Cl)c(Cl)c1 in this test? no

Just curious, what result did COc1cccc(OCC(=N/NC(=O)c2ccncc2)/N=C/c2cccnc2)c1 get here? no

What did this assay record as the result for CC12CCC3c4ccc(O)cc4CCC3C1C/C(=N\O)C2O (stereo not given) ? no

Per the records of this test, what outcome belongs to COc1ccc(CC2NCCc3cc(OC)c(OC)cc32)cc1 (stereo not given) ? no

Returns: the outcome recorded for N#Cc1cccc(NC(=O)c2ccc(C(=O)O)c(C(=O)c3ccc(C(=O)O)c(C(=O)Nc4cccc(C#N)c4)c3)c2)c1 in this assay. no

Status in this test for O=C(CCCn1cnc([N+](=O)[O-])n1)NCCn1ccnc1[N+](=O)[O-] ? no

What was the test verdict on CCCC1C2=C(C(=O)OC2=O)C2C(CC)CC3=C(C(=O)OC3=O)C12 (stereo not given) ? no

Dear colleague, could you share the recorded outcome for COC(=O)/C=C(/C(=O)OC)c1c(C)cc2c(C)cc(C)cc(C)c1-2 when you have a moment? no

Which outcome was assigned to CCOC(=O)N1c2ccccc2N(C(=O)OCC)C1CC(=O)/C=C/c1ccccc1 in this test? no

###

- System: OVCAR-5
- Assay procedure: NCI tumour cell line growth inhibition, 48 h
The source made the active and inactive calls. Rule as the data show it: active = GI50 up to about 1.1 µM and inactive = higher.
Measured GI50 values are reported for all entries that follow.

COC(=O)c1cccc(COc2ccc([N+](=O)[O-])cc2Cl)c1 ... > 100 µM (inactive)
CC[C@@H]1CC[C@@H]2[C@H](CC[C@]3(C)[C@@H](O)CC[C@@H]23)[C@H]1CO ... > 100 µM (inactive)
COC(=O)[C@@](C)(COC(=O)C(C)(C)C)NC(=O)OC(C)(C)C ... > 100 µM (inactive)
O=C1NC(=O)C(C(CC(=O)c2ccc([N+](=O)[O-])cc2)c2ccccc2)C(=O)N1 (centres undefined) ... > 100 µM (inactive)
CCCC(=O)Nc1cc(/C=C/C(=O)N2CC(CCl)c3ccc(N)cc32)n(C)c1 (centres undefined) ... 0.375 µM (active)
Cc1cccc2c(=O)c3c(O)cc(O)cc3n(C)c12 ... > 100 µM (inactive)

The compound listed as O=[N+]([O-])c1ccc(C2NC(=S)NC3c4cc([N+](=O)[O-])ccc4CCCC23)cc1 (centres undefined) shows GI50 equal to > 100 µM (inactive)

Lab note: NC(=O)N/N=C1\CCCCc2ccccc21 gave GI50 of > 10 µM (inactive)
